# measurement protocol: Blood clearance in rat at 1 mg/kg, iv
# Type: ADME, organism-based
# Design: dose 1 mg/kg, route intravenous
# experimental setup: whole blood
quantity: clearance (mL/min/kg)

>>> recorded_number("Cc1cccc(NC(=O)c2ccc(C(F)(F)F)cc2C(=O)O)n1")
0.5

----------
# measurement protocol: Half life in rat at 1 mg/kg, iv
# Type: ADME, organism-based
# Design: dose 1 mg/kg, route intravenous
# experimental setup: in vivo
quantity: half-life (h)

>>> recorded_number("Cc1cccc(NC(=O)c2ccc(C(F)(F)F)cc2C(=O)O)n1")
1.2

----------
# target or system: UniProt:Q99523
# Sequence (Q99523 whole entry): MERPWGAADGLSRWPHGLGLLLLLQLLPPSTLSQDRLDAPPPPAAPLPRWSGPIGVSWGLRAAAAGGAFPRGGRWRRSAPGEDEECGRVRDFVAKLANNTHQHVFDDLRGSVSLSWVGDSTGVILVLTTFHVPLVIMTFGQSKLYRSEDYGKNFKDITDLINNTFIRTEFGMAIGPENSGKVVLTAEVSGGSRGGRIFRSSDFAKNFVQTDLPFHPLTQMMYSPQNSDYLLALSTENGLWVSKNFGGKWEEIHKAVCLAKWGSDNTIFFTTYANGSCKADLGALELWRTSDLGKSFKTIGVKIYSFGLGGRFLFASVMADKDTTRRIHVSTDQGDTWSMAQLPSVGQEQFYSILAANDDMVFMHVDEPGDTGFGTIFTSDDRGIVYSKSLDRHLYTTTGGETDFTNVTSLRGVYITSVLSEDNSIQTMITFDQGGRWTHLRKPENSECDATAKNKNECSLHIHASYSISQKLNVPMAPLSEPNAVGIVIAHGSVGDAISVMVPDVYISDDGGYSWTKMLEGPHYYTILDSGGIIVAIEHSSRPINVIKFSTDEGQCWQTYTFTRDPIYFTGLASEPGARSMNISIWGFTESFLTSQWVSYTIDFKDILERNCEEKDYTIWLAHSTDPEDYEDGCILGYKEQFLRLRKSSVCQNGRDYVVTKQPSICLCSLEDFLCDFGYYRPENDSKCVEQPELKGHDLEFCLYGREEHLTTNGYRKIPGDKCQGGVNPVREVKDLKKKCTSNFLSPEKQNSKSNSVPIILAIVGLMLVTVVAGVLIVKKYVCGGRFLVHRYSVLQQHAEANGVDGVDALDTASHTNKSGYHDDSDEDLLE
# measurement protocol: Displacement of [3H]-neurotensin from sortilin (unknown origin) at 50 uM incubated 30 mins prior to [3H]-neurotensin addition measured after 6 hrs by scintillation proximity assay
Everything with inhibition lower than 60% is label 0; everything else, including exactly 60%, is label 1.

>>> cat("Cc1cccc(NC(=O)c2cc(Cl)ccc2C(=O)O)n1")
"label 1"
>>> cat("Cc1cccc(NC(=O)c2c(C)cccc2C(=O)O)n1")
"label 0"
>>> cat("Cc1cccc(NC(=O)c2ccccc2C(=O)O)n1")
"label 0"
>>> cat("CC(C)NC(=O)c1ccc(Br)cc1C(=O)O")
"label 0"
>>> cat("Cc1ccc(NC(=O)c2ccc(Br)cc2C(=O)O)cn1")
"label 1"
>>> cat("Cc1cccnc1NC(=O)c1ccc(Br)cc1C(=O)O")
"label 1"
>>> cat("CCC(C)NC(=O)c1ccc(Br)cc1C(=O)O (stereo unspecified)")
"label 0"
>>> cat("Cc1ccc(C(=O)O)c(C(=O)Nc2cccc(C)n2)c1")
"label 0"
>>> cat("O=C(O)c1cc(Br)ccc1C(=O)Nc1ccccc1")
"label 1"
>>> cat("Cc1cccc(NC(=O)c2ccc(-c3ccccc3)cc2C(=O)O)n1")
"label 0"
>>> cat("Cc1cccc(NC(=O)c2cccc(C)c2C(=O)O)n1")
"label 0"

----------
# measurement protocol: Free plasma concentration in rat
# Assay type: ADME, cell-free
quantity: fraction unbound

>>> result("Cc1cccc(NC(=O)c2ccc(C(F)(F)F)cc2C(=O)O)n1")
0.02

The reported measurements were obtained from ChEMBL document CHEMBL3098109.
